Items are presented alongside their recorded % Binding σ1 10^−6 M.
Molecular target: σ1-receptor (Cavia porcellus)
Construct: guinea pig brains were homogenized in 10 vols; (w/v) of Tris-HCl 50 mM 0.32 M sucrose; from tissue; host or cells: guinea pig brain membranes
Sequence (Q60492 whole entry): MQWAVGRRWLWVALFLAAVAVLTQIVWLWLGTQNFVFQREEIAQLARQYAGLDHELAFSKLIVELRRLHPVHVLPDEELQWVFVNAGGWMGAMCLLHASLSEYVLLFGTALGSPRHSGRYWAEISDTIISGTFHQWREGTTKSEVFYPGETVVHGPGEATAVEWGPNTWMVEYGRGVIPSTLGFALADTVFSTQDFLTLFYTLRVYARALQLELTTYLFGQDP
Assay: Sigma-1 receptor radioligand binding, [3H](+)pentazocine (Version A / Version B)
Design: species or system guinea pig
Conditions: compound 10^−6 M, guinea pig brain membranes
The reply should be a number in %, with the unit left off.

Asked: What value of measured % Binding σ1 10^−6 M is listed for CCCCCCCCN1CCC[C@@]2(C1)O[C@H](OC)Cc1ccccc12 ?
Given back: 46.3

Asked: What would you report for CCCCCCCCN1CCC[C@]2(C1)O[C@H](OC)Cc1ccccc12 (relative stereo) ?
Given back: 27.6

Asked: Follow-up item: CCCCCCCCN1CCC2(CC1)OC(OC)Cc1ccccc12 (stereo not shown)
Given back: 103.9

Asked: Further, for COC1Cc2ccccc2C2(CCN(Cc3ccccc3)C2)O1 (mixture of isomers) ?
Given back: 96.2

Asked: # iterate: CCCCN1CCC2(CC1)OC(OC)Cc1ccccc12 (stereo not shown)
Given back: 100.8

Asked: Proceed to CO[C@@H]1Cc2ccccc2[C@]2(CCCN(Cc3ccccc3)C2)O1 (relative stereo)
Given back: 12.9

Asked: Same question for CO[C@@H]1Cc2ccccc2[C@@]2(CCCN(CCCc3ccccc3)C2)O1 (relative stereo) please.
Given back: 38.8

----------
Target: σ1-receptor (Cavia porcellus)
Construct: guinea pig brains were homogenized in 10 vols; (w/v) of Tris-HCl 50 mM 0.32 M sucrose; from tissue; host or cells: guinea pig brain membranes
Test: Sigma-1 receptor radioligand binding, [3H](+)pentazocine (Version A / Version B)
Parameters: species or system guinea pig
Settings: compound 10^−7 M, guinea pig brain membranes
// reported inhibition at 0.1 µM per item
Form entry: value (%) — number only.

Reference set, count: 2
>  <molecule>
CCCCN1CCC2(C1)OC(OC)c1ccccc12 (mixture of isomers)

>  <measured property>
inhibition at 0.1 µM

>  <recorded measurement>
68.9

$$$$
>  <molecule>
COC1OC2(CCN(Cc3ccccc3)C2)c2ccccc21 (mixture of isomers)

>  <measured property>
inhibition at 0.1 µM

>  <recorded measurement>
88

$$$$

# next molecule below
Asked: What does the data say about its inhibition at 0.1 µM? Entry: COC1Cc2ccccc2C2(CCN(CCc3ccccc3)C2)O1 (mixture of isomers)
Given back: 89.5

----------
Test system: σ2-receptor
Assay: Sigma-2 receptor radioligand binding, [3H]-DTG (Version A / Version B)
Parameters: species or system mice (Version A, σ1 knockout brain) / rat (Version B, liver)
Conditions: compound 10^−6 M
Cut-off 30% on % Binding σ2 10^−6 M, inclusive. At or above means 1 (yes); below means 0 (no).

Example entries begin here.
>  <compound>
CCCCCCCCN1CCC[C@@]2(C1)O[C@H](OC)Cc1ccccc12

>  <category label>
1 (yes)

$$$$
>  <compound>
CO[C@@H]1Cc2ccccc2[C@]2(CCCN(CCCc3ccccc3)C2)O1 (relative stereo)

>  <category label>
1 (yes)

$$$$
>  <compound>
CCCCN1CCC[C@]2(C1)O[C@H](OC)Cc1ccccc12 (racemic)

>  <category label>
0 (no)

$$$$
>  <compound>
CCCCN1CCC2(CC1)OC(OC)Cc1ccccc12 (stereo not drawn)

>  <category label>
1 (yes)

$$$$
>  <compound>
CCCCN1CCC[C@@]2(C1)O[C@H](OC)Cc1ccccc12 (relative stereo)

>  <category label>
0 (no)

$$$$

Asked: Check this compound for % Binding σ2 10^−6 M at or above 30%: CCCCCCCCN1CCC[C@]2(C1)O[C@H](OC)Cc1ccccc12 (relative stereo)
Given back: 1 (yes)

Asked: Param item: CCCCCCCCN1CCC2(CC1)OC(OC)Cc1ccccc12 (stereo not drawn)
Given back: 1 (yes)

Asked: One more compound: CO[C@@H]1Cc2ccccc2[C@]2(CCCN(Cc3ccccc3)C2)O1 (relative stereo)
Given back: 0 (no)

Asked: Same lookup for CO[C@@H]1Cc2ccccc2[C@@]2(CCCN(CCCc3ccccc3)C2)O1 (relative stereo) , please.
Given back: 1 (yes)
